biological target: T1, human ILT5 (LILRB3) on CHO cells (human, UniProt O75022 24-626); assay: flow cytometry, CHO transfectants
T1 construct: also called CHO ILT5 cell line
T1 sequence (O75022 other isoform, or with tags, fused parts or gaps): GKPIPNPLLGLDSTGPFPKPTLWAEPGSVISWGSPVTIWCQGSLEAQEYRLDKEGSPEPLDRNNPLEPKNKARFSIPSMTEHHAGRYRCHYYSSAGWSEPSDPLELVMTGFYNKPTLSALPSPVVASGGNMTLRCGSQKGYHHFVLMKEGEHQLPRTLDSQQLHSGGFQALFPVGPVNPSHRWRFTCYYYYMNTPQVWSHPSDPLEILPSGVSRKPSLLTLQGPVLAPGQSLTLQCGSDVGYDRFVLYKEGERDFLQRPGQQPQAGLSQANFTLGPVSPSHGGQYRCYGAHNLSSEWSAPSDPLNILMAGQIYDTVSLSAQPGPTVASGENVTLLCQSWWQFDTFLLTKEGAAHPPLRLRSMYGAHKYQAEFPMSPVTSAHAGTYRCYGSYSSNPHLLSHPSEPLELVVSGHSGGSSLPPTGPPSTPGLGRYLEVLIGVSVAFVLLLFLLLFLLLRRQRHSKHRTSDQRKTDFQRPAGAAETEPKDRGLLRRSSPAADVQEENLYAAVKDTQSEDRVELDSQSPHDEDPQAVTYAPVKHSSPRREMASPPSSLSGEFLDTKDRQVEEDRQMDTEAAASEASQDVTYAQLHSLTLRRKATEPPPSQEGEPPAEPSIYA
Readout: binding result

27C10 (antibody, human IgG1, V domains shown) VH: EVQLQESGPGLVKPSQSLSLTCSVTGYSITSGYYWNWIRQFPENKLEWMGYIRYDGSNNYNPSLNNRISITRDASKNQFFLKLNSVTTEDTATYYCARGWLLWFYAVDYWGQGTSVTVSS VL: DVVMTQTPLSLPVSLGDQASISCRSSQSIVHTNGNTYLEWYLQKSGQSPKLLIYKVSNRLSGVPDRFSGSGSGTDFTLKISRVEAEDLGIYYCFQGSHVPWTFGGGTKLEIK: no binding
12D12 (antibody, human IgG1, V domains shown) VH: QVQLQQPGAELVKPGASVRMSCKASGYTFTSYWVHWVKQRPGQGLEWIGVIDPSDSYTSYNQNFKGKATLTVDTSSKTAYIHLSSLTSEDSAVYFCARGERYDGDYFAMDYWGQGTSVTVSS VL: DIVMTQSPASLSVSVGETVTITCRASENIYSNLAWYQQKQGKSPQLLVYAATNLADGVPSRFSGSRSGTQYSLKINSLQSEDFGTYYCQHFWNTPRTFGGGTKLEIK: no binding
26D8 (antibody, human IgG1, V domains shown) VH: QVQLQQSGAELVKPGASVKLSCKASGYTFTEHTIHWIKQRSGQGLEWIGWFYPGSGSMKYNEKFKDKATLTADKSSSTVYMELTRLTSEDSAVYFCARHTNWDFDYWGQGTTLTVSS VL: DIVLTQSPASLAVSLGQRATISCKASQSVDYGGDSYMNWYQQKPGQPPKLLIYAASNLESGIPARFSGSGSGTDLTLNIHPVEEDDAAMYYCQQSNEEPWTFGGGTKLEIK: no binding
